Documented IC50 across a set of compounds
- Test system: tau stress granules
- test_description: SY5Y-tT1 tau arsenite assay (tau stress granules per cell)
- Type: cell-based
- study_conditions: SY5Y-tT1 cells, 2 hours compound, 90 minutes arsenite, 50% reduction of granules per cell, read-out: IC50, Inhibitor Activity of Tau Stress Granules

Cc1cc(-c2ccc(C3CCN(C)CC3)nc2)sc1C(=O)N1CC[C@H](N)C1: 500 to 1000 nM
Cc1cc(-c2ccc(N3CCN(C4CCC4)CC3)cc2)sc1C(=O)N1CC[C@H](N)C1: 1000 to 2000 nM
CCN1CCC(c2ccc(-c3cc(C)c(C(=O)N4CC[C@H](N)C4)s3)cc2)CC1: 500 to 1000 nM

Reported IC50 ( Cc1cc(-c2ccc(C3CCNCC3)cc2F)sc1C(=O)N1CC[C@H](N)C1 ) = 2000 to 6000 nM

* * *

- Test system: TDP-43 aggregation
- test_description: TDP-43 aggregation assay in SY5Y TDP-43WT cells (high content imaging)
- Type: cell-based
- study_conditions: Homo sapiens, tetracycline induction 24 hrs, 1 hour compound pre-treatment, sodium arsenite 23 hrs, 8-point dose curve, percentage of cells with TDP-43 aggregates, read-out: IC50, Inhibition of TDP-43 Aggregation
- Protocol: Exemplary compounds disclosed herein were evaluated for efficacy in inhibiting TDP-43 inclusions cellular imaging-based assays. The cellular model was in human neuroblastoma SH SYSY cells (ATCC, cat #: CRL-2266). […] Compound inhibition of TDP-43 aggregation was tested in an 8-point dose curve in 96-well format. […] The inhibitory effect on TDP-43 aggregation was measured using CellInsight CX7 high content imager (ThermoFisher). […]
result_type: IC50

COCCN1CCC(c2ccc(-c3cc(Cl)c(C(=O)N4CC[C@H](N)C4)s3)cc2)CC1 [Compound 258]: < 500 nM

Noted for COCCN1CCC(c2ccc(-c3cc(C)c(C(=O)N4CC[C@H](N)C4)s3)cc2Cl)CC1 [Compound 248] : its IC50 reads 500 to 1000 nM

The compound listed as CCc1ccc(-c2cc(C)c(C(=O)N3CC[C@H](N)C3)s2)cc1C [Compound 220] has a reported IC50 of 6000 to 10000 nM

# IC50 of COC(C)(C)CN1CCC(c2ccc(-c3cc(Cl)c(C(=O)N4CC[C@H](N)C4)s3)cc2F)CC1 [Compound 249] = < 500 nM

Notebook: CCN1CCC(c2ccc(-c3cc(C)c(C(=O)N4CC[C@H](N)C4)s3)cc2F)CC1 [Compound 281] , IC50 read as < 500 nM

Input Cc1cc(-c2ccc(C3CCN(C4CC4)CC3)cc2)sc1C(=O)N1CC[C@H](N)C1 [Compound 175] . Output IC50: < 500 nM

Kindly note the recorded IC50 for Cc1cc(-c2ccc(C3(N(C)C)CCCCC3)cc2)sc1C(=O)N1CC[C@H](N)C1 [Compound 192] , which is 2000 to 6000 nM

// field: IC50; key: CCCN1CCC(c2ccc(-c3cc(C)c(C(=O)N4CC[C@H](N)C4)s3)cc2)CC1 [Compound 182] ; value = < 500 nM

* * *

# pIC50 per record follows
- Test system: tau stress granules
- test_description: SY5Y-tT1 tau arsenite assay (tau stress granules per cell)
- Format: cell-based
- study_conditions: SY5Y-tT1 cells, 2 hours compound, 90 minutes arsenite, 50% reduction of granules per cell, read-out: IC50, Inhibitor Activity of Tau Stress Granules
pIC50: −log10 of the molar value.

Looking up Cc1cc(-c2ccc3c(c2)CCOC3)sc1C(=O)N1CC[C@H](N)C1 , I found its pIC50 recorded as 6.00 to 6.30

pIC50 recorded for this molecule, CCCN1CCC(c2ccc(-c3cc(C)c(C(=O)N4CC[C@H](N)C4)s3)cc2)CC1 , is > 6.30

// recorded pIC50 for Cc1cc(-c2ccc3c(c2)CCNC3)sc1C(=O)N1CC[C@H](N)C1 : 5.22 to 5.70

Form field pIC50, entry Cc1cc(-c2ccc(C3CCN(C)CC3)cc2OC(F)(F)F)sc1C(=O)N1CC[C@H](N)C1 : 5.22 to 5.70

GET /value?item= Cc1cc(-c2ccc(C3CCN(C4CCS(=O)(=O)CC4)CC3)cc2)sc1C(=O)N1CC[C@H](N)C1 &field=pIC50 returns > 6.30

The reported value for Cc1cc(-c2ccc(C3CCN(C)CC3)c(F)c2)sc1C(=O)N1CC[C@H](N)C1 in terms of pIC50 is > 6.30

Recorded result, Cc1cc(-c2ccc(C3CCNCC3)c(F)c2)sc1C(=O)N1CC[C@H](N)C1 , pIC50: 6.00 to 6.30

Measured pIC50, Cc1cc(-c2ccc(C3(N(C)C)CCOCC3)cc2)sc1C(=O)N1CC[C@H](N)C1 : > 6.30

For reference, reported pIC50 for Cc1cc(-c2ccc(C3CCN(C4CCCC4)CC3)cc2)sc1C(=O)N1CC[C@H](N)C1 stands at > 6.30

// Cc1cc(-c2ccc(C3CCN(C4COC4)CC3)cc2)sc1C(=O)N1CC[C@H](N)C1 : pIC50 value = > 6.30

The value of pIC50 measured for the molecule C=CCc1cc(-c2ccc(C3CCN(C(C)C)CC3)cc2)sc1C(=O)N1CC[C@H](N)C1 turned out to be > 6.30

# pIC50 (molecule: CCc1cc(-c2ccc(C3CCN(C(C)C)CC3)cc2)sc1C(=O)N1CC[C@H](N)C1 ) is 5.70 to 6.00
